experiment: S. cerevisiae RM11-1a growth modifiers, primary screen, strain RM11-1a, OD600, basal, 24 h (AID 1177); settings: OD600, 24 h, higher = more signal, called active from +8 up or from −8 down;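 note: cultures grown under basal conditions with no added stressor; test concentration not given here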
z-score reference
No unit in the answer, please; the number alone is enough.

Noted for `CCCC[C@@H]1C[C@H]1[C@@H](NC(=O)c1ccco1)c1ccc(Cl)cc1` : its z-score reads 0.657

Noted for `Cc1ccc(S[C@]2(C(=O)NCC(F)(F)F)CC(=O)N(C(C)C)[C@@H]2c2ccc(CO)cc2I)cc1` : its z-score reads 0.701

Noted for `O=C1c2ccccc2[C@@]2(Cc3ccccc3N(CC(F)(F)F)C2=O)[C@H](c2ccc(CO)cc2)N1Cc1ccccc1Cl` : its z-score reads -0.399

Noted for COc1ccc(C(O)C2C=CC3C(=O)N(c4ccccc4)C(=O)C3N2Nc2ccc(C(C)C)cc2)cc1OCc1ccccc1 (stereo not drawn) : its z-score reads 0.165

Others:
Noted for `CC(C)C[C@@H]1NC(=O)[C@H]2C[C@@H](C(=O)NCCCCCCN)[C@@H](c3ccc(O)cc3)N2C1=O` : its z-score reads -0.459

Noted for `C=C(CCCC)/C(=C/C[C@@H](OC(C)=O)c1ccccc1OCCO)c1cnc2ccccc2c1` : its z-score reads 0.862

Noted for CN1C(=O)C2C=CC(C(O)Cc3ccccc3)N(Nc3ccccc3)C2C1=O (stereo not drawn) : its z-score reads 0.217

* * *

test: CREB reporter modulators without forskolin, primary screen, cell-based, PC12, CRE-LacZ reporter, unstimulated (AID 1145); conditions: no forskolin, luminescence, 4.5 h, higher = more signal, called active from +8 up or from −8 down
Respond with yes for z-score values of 0.2 and above, no for values below.

Determine whether measured z-score meets or exceeds 0.2 for [N-]=[N+]=NCc1ccccc1C[C@]1(C(=O)NCC(O)CO)N=C(c2ccc(OCCCO)cc2)O[C@H]1c1ccccc1 (some centres not stated)
yes

Determine whether measured z-score meets or exceeds 0.2 for `COc1ccc(C(=O)Nc2cccc(CN3C(=O)[C@]4(O[C@H](CCO)[C@@H]([Si](C)(C)c5ccc(OC)cc5)[C@@H]4C)c4ccccc43)c2)cc1`
yes

Determine whether measured z-score meets or exceeds 0.2 for `O=C1c2ccccc2[C@@]2(Cc3ccccc3N(CCN3CCOCC3)C2=O)[C@H](c2ccc(CO)cc2)N1Cc1ccccc1`
yes

Determine whether measured z-score meets or exceeds 0.2 for `CC(C)N1C(=O)[C@@]2(Cc3ccccc31)c1ccccc1C(=O)N(C1CCCCC1)[C@H]2c1ccc(CO)cc1`
no

Determine whether measured z-score meets or exceeds 0.2 for `CC(C)C[C@@H]1NC(=O)[C@@H]2C[C@H](C(=O)NCCCCCN)[C@H](c3cccc(OCCO)c3)N2C1=O`
no

Kindly consider the entry below.
Determine whether measured z-score meets or exceeds 0.2 for `C=CCOC(=O)[C@H]1[C@@H]2C(=O)O[C@@H](c3ccccc3)[C@@H](c3ccccc3)N2[C@@H](c2ccc(OCCOC(=O)[C@@H]3C[C@@H]4C(=O)N[C@@H](CCCCN(C)C)C(=O)N4[C@@H]3c3ccc(O)cc3)cc2)[C@]12C(=O)Nc1ccc(I)cc12`
no

* * *

assay: MM1S cell viability effects, profiling panel, calcein-AM fluorescence, 48 h, basal (AID 1165); conditions: higher = more signal;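 note: viability of MM1S multiple myeloma cells under basal unstimulated conditions; test concentration not given here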
z-score reference
No unit in the answer, please; the number alone is enough.

Noted for `COC(=O)[C@@]1(Cc2ccc(F)cc2)[C@H]2c3cc(C(=O)N4CCCC4)n(Cc4cc(C)n(C)n4)c3C[C@H]2CN1C(=O)c1ccccc1` : its z-score reads -0.391

Noted for `C=CCOC(=O)[C@@H]1[C@H]2C(=O)O[C@H](c3ccccc3)[C@H](c3ccccc3)N2[C@H](c2ccc(OCCOC(=O)[C@@H]3C[C@@H]4C(=O)N[C@@H](CCCC[N+](C)(C)C)C(=O)N4[C@@H]3c3cccc(OCCO)c3)cc2)[C@@]12C(=O)Nc1ccc(I)cc12` : its z-score reads -2.78

Noted for `COc1cc2c(cc1O)C=[N+](Cc1cccc(OC(F)(F)F)c1)CC2` : its z-score reads 1.25

Noted for `CC(=O)NCCCC[C@@H]1NC(=O)[C@@H]2C[C@H](C(=O)NCCCCCCNC(=O)CS)[C@H](c3cccc(OCCO)c3)N2C1=O` : its z-score reads 0.211

Noted for C=CCC(OC(C)=O)[C@@H]1[C@@H](N(Cc2ccc(-c3ccccc3)cc2)C(=O)Cc2ccc(F)cc2)c2cc(OCCCO)ccc2N1C(=O)c1ccc(-c2ccccc2)cc1 (stereo partly specified) : its z-score reads 0.784

Please find the next molecule below.
Noted for `CN(C)C(=O)[C@@]1(Cc2ccccc2)N=C(c2ccc(OCCCO)cc2)O[C@H]1c1ccccc1N=[N+]=[N-]` : its z-score reads -2.53

* * *

composite z-score reference
test: binders of probe aFSTL3 on microarray, primary screen, stem cell growth factor project, biochemical, small-molecule microarray, fluorescence 635/667 (AID 1064); conditions: higher = more signal;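 note: measures binding of the biotinylated anti-FSTL3 antibody to printed compounds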
No unit in the answer, please; the number alone is enough.

Consider the following illustrative entries.
Noted for O=C1NC(=O)C2C1C=CC(C(O)C(c1ccccc1)c1ccccc1)N2Nc1ccc(Cl)cc1Cl (configuration not stated) : its composite z-score reads 0.246

Noted for `COC(=O)[C@@]1(Cc2ccc(OC)cc2)[C@H]2c3cc(C(=O)N(C)C)n(CCN4CNCC4=O)c3C[C@H]2CN1C(=O)c1ccccc1` : its composite z-score reads 0.39

Noted for `CO[C@H]1O[C@H](CO)[C@@H](OC(=O)Nc2ccc(Br)cc2)[C@H](OC(=O)c2cc3ccccc3[nH]2)[C@H]1OC(=O)c1cc2ccccc2[nH]1` : its composite z-score reads -0.31

Noted for `[N-]=[N+]=NCc1ccccc1[C@H]1OC(c2ccc(OCCCO)cc2)=N[C@@]1(Cc1ccccc1)C(=O)NCc1ccccc1` : its composite z-score reads -0.0101

Noted for `NC(=O)[C@@H]1[C@H]2C(=O)O[C@H](c3ccccc3)[C@H](c3ccccc3)N2[C@H](c2ccc(O)cc2)[C@@]12C(=O)Nc1ccc(C#CC3(O)CCCCCC3)cc12` : its composite z-score reads 0.372

Others:
Noted for `COCCOC(=O)N1C(=O)[C@@]2(c3cc(C#CCNC(N)=O)ccc31)[C@H](C(=O)NC[C@H](O)c1ccccc1)[C@H]1C(=O)O[C@H](c3ccccc3)[C@H](c3ccccc3)N1[C@@H]2c1ccccc1OCCO` : its composite z-score reads -0.12

Noted for `COc1ccc(CCNC(=O)[C@@]2(Sc3ccc(C)cc3)CC(=O)N(C3CCCCC3)[C@@H]2c2ccc(CO)cc2I)cc1` : its composite z-score reads -0.113

Noted for `C=CCOC(=O)[C@@H]1[C@H]2C(=O)O[C@H](c3ccccc3)[C@H](c3ccccc3)N2[C@H](c2ccc(OCCOC(=O)[C@@H]3C[C@@H]4C(=O)N5CCC[C@H]5C(=O)N4[C@@H]3c3ccc(O)cc3)cc2)[C@@]12C(=O)Nc1ccc(I)cc12` : its composite z-score reads -0.354

* * *

composite z-score reference
assay: small-molecule microarray binders of probe aNog, primary screen, biochemical, biotinylated probe, 635/667 nm fluorescence (AID 1115); settings: higher = more signal;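 note: probe is biotinylated aNog protein used at 0.15 µg/mL for 1 h at 4 C; z-score combines 667 nm fluorescence of each spot with its signal to noise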
No unit in the answer, please; the number alone is enough.

Noted for `COc1ccc(CCNC(=O)[C@@]2(C)c3ccccc3C(=O)N(Cc3cc(F)cc(C(F)(F)F)c3)[C@H]2c2ccc(CO)cc2)cc1` : its composite z-score reads 0.549

Noted for N#Cc1ccc(NN2C(C(O)c3c(F)cccc3Cl)C=CC3C(=O)N(c4ccccc4)C(=O)C32)cc1 (configuration not stated) : its composite z-score reads 1.65

Noted for `COCCOC(=O)N1C(=O)[C@@]2(c3cc(C#Cc4ccc(OC)cc4)ccc31)[C@H](c1ccc(O)cc1)N1[C@H](c3ccccc3)[C@H](c3ccccc3)OC(=O)[C@H]1[C@@H]2C(=O)NC[C@H](O)c1ccccc1` : its composite z-score reads -0.467

Noted for CC(C)C[C@H]1NC(=O)[C@@]23C(=O)N[C@@H](Cc4ccccc4)C2[C@H](C)[C@@]2(C)O[C@H]2C3/C=C/C/C=C\CNC(=O)[C@H](Cc2ccccc2)NC1=O (some centres not stated) : its composite z-score reads -0.194

Noted for `COCCCNC(=O)[C@@]1(Cc2ccccc2N=[N+]=[N-])N=C(c2ccc(OCCCO)cc2)O[C@H]1c1ccccc1N=[N+]=[N-]` : its composite z-score reads 1.43

Noted for `O=C(NCC(F)(F)F)[C@@H]1c2ccccc2C(=O)N(C2CCCCC2)[C@H]1c1ccc(CO)cc1` : its composite z-score reads -0.342

Noted for [N-]=[N+]=NCc1ccccc1C[C@@]1(C(=O)NCC(O)CO)N=C(c2ccc(OCCCO)cc2)O[C@@H]1c1ccccc1N=[N+]=[N-] (some centres not stated) : its composite z-score reads 2.11

* * *

test: small-molecule binders of probe aLefty1, primary screen, biochemical, small-molecule microarray, 635/667 nm fluorescence (AID 1153); details: higher = more signal;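 note: score merges spot fluorescence with signal-to-noise ratio from the scanned slide images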
composite z-score reference

Consider the following illustrative entries.
Noted for `COCCCNC(=O)[C@@]1(Cc2ccccc2N=[N+]=[N-])N=C(c2ccc(OCCCO)cc2)O[C@H]1c1ccccc1N=[N+]=[N-]` : its composite z-score reads 0.302

Noted for `COc1ccc(CCNC(=O)[C@@]2(Sc3ccc(C)cc3)CC(=O)N(C3CCCCC3)[C@@H]2c2ccc(CO)cc2I)cc1` : its composite z-score reads 0.0889

Please find the next molecule below.
Noted for `COCCOC(=O)N1C(=O)[C@@]2(c3cc(C#CC4=CCCCC4)ccc31)[C@H](c1ccc(O)cc1)N1[C@H](c3ccccc3)[C@H](c3ccccc3)OC(=O)[C@H]1[C@@H]2C(N)=O` : its composite z-score reads -0.523
